B1: library; a variant is named by its letters at N, in order (parent)
chain: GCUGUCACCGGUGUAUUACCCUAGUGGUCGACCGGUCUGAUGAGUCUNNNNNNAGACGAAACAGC

Variants of: B1
experimental-details: normalized RNA/DNA level without ligand (relative to sTRSVctl = 100) (log10 (% of sTRSVctl)); ligand: hypoxanthine (xanthine aptamer); higher = less ribozyme self-cleavage, higher mRNA level
assay-setup: HEK293T, reporter: mCherry (pCS4076), ligand present: no
Could you please report measured normalized RNA/DNA level without ligand (log10) for the items listed next?
Answer field: number only, no words.

Exam item: Quickly give me recorded normalized RNA/DNA level without ligand (log10) for `UUGUGU`
Marked response: 1.93

Exam item: Please give measured normalized RNA/DNA level without ligand (log10) of the following entry: `GACAUC`
Marked response: 1.93

Exam item: Write down normalized RNA/DNA level without ligand (log10) measured for item `GUCUGA`
Marked response: 1.79

Exam item: Tell me normalized RNA/DNA level without ligand (log10) reported for `UCCUGA`
Marked response: 1.77

Exam item: # return recorded normalized RNA/DNA level without ligand (log10) for input `AGCUGA`
Marked response: 1.74

Exam item: Give the value of normalized RNA/DNA level without ligand (log10) reported for the following: `AGGCCA`
Marked response: 1.86

Exam item: Return normalized RNA/DNA level without ligand (log10) for the following variant: `GGGGUG`
Marked response: 1.56

Exam item: Give a short answer stating reported normalized RNA/DNA level without ligand (log10) for `CUUAUU` .
Marked response: 1.87

Exam item: Recall and state the measured normalized RNA/DNA level without ligand (log10) for `AUCGAC` .
Marked response: 1.81

Exam item: Give the reported normalized RNA/DNA level without ligand (log10) for this variant. `UAGGUU`
Marked response: 1.85

Exam item: Please list normalized RNA/DNA level without ligand (log10) recorded for the variant `CAUAGC`
Marked response: 1.86

Exam item: Supply reported normalized RNA/DNA level without ligand (log10) belonging to this variant: `GUUAUG`
Marked response: 1.46

Exam item: Please report normalized RNA/DNA level without ligand (log10) for the following variant: `AGACGG`
Marked response: 1.31

Exam item: Identify measured normalized RNA/DNA level without ligand (log10) associated with `CGGGGC`
Marked response: 1.9

Exam item: Identify measured normalized RNA/DNA level without ligand (log10) associated with `UACCUA`
Marked response: 1.92

Exam item: Entry `UGAAGC` needs its normalized RNA/DNA level without ligand (log10) filled in; supply it.
Marked response: 1.81

Exam item: # return recorded normalized RNA/DNA level without ligand (log10) for input `AUGGAC`
Marked response: 1.68

Exam item: Read off the recorded normalized RNA/DNA level without ligand (log10) for `GUUCCC`
Marked response: 1.92

Exam item: For `UCCAAU` , write its normalized RNA/DNA level without ligand (log10).
Marked response: 1.79

Exam item: Write down normalized RNA/DNA level without ligand (log10) measured for item `GAGUUC`
Marked response: 1.86

Exam item: Look up and state reported normalized RNA/DNA level without ligand (log10) for `CACUUC`
Marked response: 1.93

Exam item: For the variant `AAGGGA` , give its measured normalized RNA/DNA level without ligand (log10) value.
Marked response: 1.44

Exam item: Output normalized RNA/DNA level without ligand (log10) of `CAGAAG`
Marked response: 1.59

Exam item: State its normalized RNA/DNA level without ligand (log10): `GUGGGC`
Marked response: 1.33

Exam item: Tell us which normalized RNA/DNA level without ligand (log10) value is on record for `GCCGCA`
Marked response: 1.85

Exam item: Hello, please tell me recorded normalized RNA/DNA level without ligand (log10) for this one: `AACCAG`
Marked response: 1.41

Exam item: Please give measured normalized RNA/DNA level without ligand (log10) of the following entry: `UCGGGU`
Marked response: 1.55

Exam item: Look up normalized RNA/DNA level without ligand (log10) of `GGCCUU` and report it.
Marked response: 1.97

Exam item: Specify normalized RNA/DNA level without ligand (log10) for `UCAGAC` and stop.
Marked response: 1.92
